# Tested on: HEK293
# assay_comment: Cellular IC50 HEK293
# Assay type: cell-based
# conditions_used: Homo sapiens, HEK293; read-out: Cellular IC50 HEK293
measurement_label: log10 IC50 (log10 of the value in nM)

compound="CCOc1ccc(-c2nnc([C@H]3C[C@H](NC(=O)c4cccc(C(N)=O)n4)C3)n2-c2ccccc2F)nc1 [Example 7]" obs_value=1.85
compound="CCOc1ccc(-c2nnc([C@H]3C[C@H](NC(=O)c4cc[n+]([O-])c5cc(F)cnc45)C3)n2-c2ccccc2F)nc1 [Example 29]" obs_value=0.45
compound="CCOc1ccc(-c2nnc([C@H]3C[C@H](NC(=O)c4cccc(N)n4)C3)n2-c2ccccc2F)nc1 [Example 20]" obs_value=1.43
compound="CCOc1ccc(-c2nnc([C@H]3C[C@H](NC(=O)c4cccc(O)c4)C3)n2-c2ccccc2F)nc1 [Example 15]" obs_value=2.11
compound="CCOc1ccc(-c2nnc([C@H]3C[C@H](NC(=O)c4ccc5cccc(O)c5n4)C3)n2-c2ccccc2F)nc1 [Example 21]" obs_value=1.86
compound="CCOc1ccc(-c2nnc([C@H]3C[C@H](NC(=O)c4cc[n+]([O-])c5cccnc45)C3)n2-c2ccccc2F)nc1 [Example 26]" obs_value=0.15
compound="CCOc1ccc(-c2nnc([C@H]3C[C@H](NC(=O)c4cccc5c(N(C)C)ccnc45)C3)n2-c2ccccc2F)nc1 [Example 22]" obs_value=1.18
